# ASSAY_SYSTEM: Human immunodeficiency virus type 1 reverse transcriptase (Human immunodeficiency virus 1)
# EXPERIMENT: Inhibitory concentration against HIV-1 reverse transcriptase
Here, each record is paired with measured log10 EC50 data.
All values: base-10 log of EC50 in nM.

Lookup: Item `CCOCn1c(Sc2ccccc2)c(C)c(=O)[nH]c1=O` with Human immunodeficiency virus type 1 reverse transcriptase (Human immunodeficiency virus 1) - log10 EC50?
Found: 2.52

Lookup: Item `CCc1c(Sc2ccccc2)n(C/C=C/c2ccco2)c(=O)[nH]c1=O` with Human immunodeficiency virus type 1 reverse transcriptase (Human immunodeficiency virus 1) - log10 EC50?
Found: 2.23

---

# ASSAY_SYSTEM: Human immunodeficiency virus type 1 reverse transcriptase (Human immunodeficiency virus 1)
# EXPERIMENT: Inhibitory concentration against HIV-1 reverse transcriptase
VALUE_KIND: pEC50
// field semantics: pEC50 = negative decimal log of concentration (mol/L)

1. Cc1c(Sc2cccc(I)c2)n(COCCO)c(=O)[nH]c1=O : 5.00
2. Cc1c(Cc2ccccc2)n(COCCO)c(=O)[nH]c1=O : 5.24

Let us move to another entry and its pEC50.
Lookup: What measured pEC50 goes with `CC(C)c1c(Sc2ccccc2)n(COCCO)c(=S)[nH]c1=O` ?
Found: 7.23

---

# ASSAY_SYSTEM: Human immunodeficiency virus type 1 reverse transcriptase (Human immunodeficiency virus 1)
# EXPERIMENT: Inhibitory concentration against HIV-1 reverse transcriptase
Please note: EC50 exactly at 300 nM is Not fulfilled. Only values below 300 nM get Fulfilled.

Consider the following illustrative entries.
1. CCCCn1c(Sc2ccccc2)c(C)c(=O)[nH]c1=O : Not fulfilled
2. CCc1c(Sc2cc(C)cc(C)c2)n(COCc2ccccc2)c(=O)[nH]c1=O : Fulfilled
3. CCc1c(Sc2ccccc2)n(COCCc2ccccc2)c(=S)[nH]c1=O : Fulfilled

Lookup: In plain terms, does `CCc1c(Cc2ccccc2)n(CCOC)c(=O)[nH]c1=O` come in under 300 nM for EC50?
Found: Fulfilled

Lookup: In plain terms, does `CCOCn1c(Cc2cc(C)cc(C)c2)c(C(C)C)c(=O)[nH]c1=O` come in under 300 nM for EC50?
Found: Fulfilled

Lookup: In plain terms, does `COC(=O)c1cccc(Sc2c(C)c(=O)[nH]c(=O)n2COCCO)c1` come in under 300 nM for EC50?
Found: Not fulfilled

Lookup: In plain terms, does `CCc1c(Sc2ccccc2)n(CC(C)C)c(=S)[nH]c1=O` come in under 300 nM for EC50?
Found: Fulfilled

Lookup: In plain terms, does `CCc1c(Sc2ccccc2)n(CC(C)C)c(=O)[nH]c1=O` come in under 300 nM for EC50?
Found: Not fulfilled

Lookup: In plain terms, does `COCCOCn1c(Sc2ccccc2)c(C)c(=O)[nH]c1=O` come in under 300 nM for EC50?
Found: Not fulfilled

Ref: ChEMBL document CHEMBL1130269
